- Species on record: Rattus norvegicus
- assay_notes: Amount of deuterium retained was reported after normal workup in beta-naphthoflavone-treated male rats with the substrate rac 7-D
- Assay type: ADME, organism-based
experimental_endpoint: Deuterium retention (%)

| molecule | Deuterium retention [%] |
| --- | --- |
| CC(=O)CC(c1ccccc1)c1c(O)oc2ccc(O)cc2c1=O (centres undefined) | 84 |
| CC(=O)CC(c1ccccc1)c1c(O)oc2c(O)cccc2c1=O (centres undefined) | 76 |

I. CC(=O)CC(c1ccccc1)c1c(O)oc2cc(O)ccc2c1=O (centres undefined)
II. CC(=O)CC(c1ccc(O)cc1)c1c(O)oc2ccccc2c1=O (centres undefined)
// returns I or II , whichever has the lower Deuterium retention Give the label under which the chosen entry appears.
I
